Exercise: for every item that follows, state its recorded melting point.

Some entries whose results are on file:
Task item: Request the reported melting point associated with COc1cc(C(=O)O)ccc1Cn1ncc2ccc(NC(=O)CC3CCCC3)cc21
Reply: 254 to 256 °C

Task item: Try the compound O=C(O)c1cc(C(=O)O)c(C(O)=NCO)cc1C(O)=NCO
Reply: 300 °C

Task item: Try the compound Cc1ncc([N+](=O)[O-])cc1C(=O)NCCO
Reply: 144 to 145 °C

Task item: Try the compound C=CCNc1nc(NC(=O)Nc2ccccc2OC)nc(N(CCC(=O)O)Cc2ccc(Cl)c(Cl)c2)n1
Reply: 201 °C

List the reported melting point of each compound below.
1. CCSNc1c(C#N)c(C)nn1-c1c(Cl)cc(C(F)(F)F)cc1Cl
2. CC(C)CCCC(C)NC(=O)CCC(=NNC(N)=S)c1ccccc1 (centres undefined)
3. O=C1Nc2cccc(-c3ccc(Cl)cc3Cl)c2/C1=C/c1ccc[nH]1

Reply:
1. 160 to 161 °C
2. 58 to 65 °C
3. 185 to 187 °C

List the reported melting point of each compound below.
1. O=C(O)c1cc(NC(=O)C(CS)Cc2ccccc2)ccc1O (centres undefined)
2. COc1ccc(COC(=O)c2cc([N+](=O)[O-])c3ccccc3c2O)cc1

Reply:
206 to 209 °C
163 to 164 °C
